# credit: ChEMBL document CHEMBL4261482

Consider the following compounds; for each one, report its IC50.
# Tested on: CAKI-2
# protocol_details: Cytotoxicity against human Caki2 cells assessed as decrease in cell viability after 72 hrs by MTT assay
# Type: functional, cell-based
# test_settings: CAKI-2, 72 h
Answer with a number only, understood to be in nM.

Ask: Recorded IC50 of Cc1cc(O)c(-c2ccc([C@@H](C)CN)cc2)c2c1[nH]c(=O)c1sccc12 , please.
Result: 20.1

Ask: Can you handle CC(=O)c1cnc2ccc(-c3cc(Cl)c(O)c(Cl)c3)nc2c1N[C@H]1CC[C@H](CN(C)C)CC1 next?
Result: 38.7

====

# Tested on: NCI-H524
# protocol_details: Cytotoxicity against human NCI-H524 cells assessed as decrease in cell viability after 72 hrs by MTT assay
# Type: functional, cell-based
# test_settings: NCI-H524, 72 h
reported_endpoint: IC50 (nM)
Numeric answer only, unit nM assumed.

Ask: // returns reported IC50 for input CC(=O)c1cnc2ccc(-c3cc(Cl)c(O)c(Cl)c3)nc2c1N[C@H]1CC[C@H](CN(C)C)CC1
Result: 1.9
